Target: T1, factor XIIIa (Homo sapiens, UniProt P00488)
T1 sequence (P00488 39-732 limits assumed): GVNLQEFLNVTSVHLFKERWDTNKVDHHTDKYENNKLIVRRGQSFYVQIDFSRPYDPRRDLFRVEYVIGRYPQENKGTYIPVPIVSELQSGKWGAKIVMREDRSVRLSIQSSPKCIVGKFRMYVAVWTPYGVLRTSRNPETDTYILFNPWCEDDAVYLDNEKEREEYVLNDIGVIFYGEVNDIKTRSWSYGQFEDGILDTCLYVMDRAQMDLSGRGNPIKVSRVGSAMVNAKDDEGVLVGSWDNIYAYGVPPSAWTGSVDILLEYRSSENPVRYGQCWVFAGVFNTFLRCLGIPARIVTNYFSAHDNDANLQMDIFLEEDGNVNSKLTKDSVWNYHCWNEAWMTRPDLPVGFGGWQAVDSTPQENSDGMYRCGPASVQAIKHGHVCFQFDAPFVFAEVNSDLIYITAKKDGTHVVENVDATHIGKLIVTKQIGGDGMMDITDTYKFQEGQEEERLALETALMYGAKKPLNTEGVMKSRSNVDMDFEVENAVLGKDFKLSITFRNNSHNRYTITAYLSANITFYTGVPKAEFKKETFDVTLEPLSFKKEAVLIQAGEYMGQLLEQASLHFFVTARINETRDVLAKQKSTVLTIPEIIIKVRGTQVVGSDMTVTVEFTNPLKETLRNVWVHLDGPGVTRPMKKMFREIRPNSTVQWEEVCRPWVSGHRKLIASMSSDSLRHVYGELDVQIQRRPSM
Assay: biochemical
Type: biochemical
Conditions: Table 2; final variant concentration 5.45 μM; recombinant tridegin polypeptide normalized to 100%
The entries below are paired with their reported Relative inhibitory effect (%).
endpoint: Relative inhibitory effect (%)

# molecule, value-observed
measured = [
    ("P65A: modified tridegin, XnY mutation of SEQ ID No. 1, expressed in Escherichia coli (protein) MKLLPCKEWHQGIPNPRCWCGADLECAQDQYCAFIPQCRPRSELIKPMDDIYQRPVEFPNLPLKAREE", 51),
    ("N60A: modified tridegin, XnY mutation of SEQ ID No. 1, expressed in Escherichia coli (protein) MKLLPCKEWHQGIPNPRCWCGADLECAQDQYCAFIPQCRPRSELIKPMDDIYQRPVEFPALPLKPREE", 68),
]
